experimentSummary: Rat PO pharmacokinetic study
Type: in vivo
conditionInfo: male, Sprague-Dawley, plasma, oral dose of 5 mg/kg, PEG-400/ethanol (90/10) solution, fasted rats
attributeMeasured: AUC
I'd appreciate it if you included the unit after the number.

Qu. Specify reported AUC for the compound shown: C=C(C)[C@@H]1CC[C@]2(NCCN3CCS(=O)(=O)CC3)CC[C@]3(C)[C@H](CC[C@@H]4[C@@]5(C)CC=C(C6=CCC(C)(C(=O)O)CC6)C(C)(C)[C@@H]5CC[C@]43C)[C@@H]12 (stereo partly shown) [Compound B, reference compound]
Ans. 6.46 µM·h

Qu. Quickly give me recorded AUC for C=C(C)[C@@H]1CC[C@]2(NCCN3CCS(=O)(=O)CC3)CC[C@]3(C)[C@H](CC[C@@H]4[C@@]5(C)CC=C(C6=CC[C@@](CF)(C(=O)O)CC6)C(C)(C)[C@@H]5CC[C@]43C)[C@@H]12
Ans. 7.39 µM·h

Qu. Using the record for C=C(C)[C@@H]1CC[C@]2(NCCN3CCS(=O)(=O)CC3)CC[C@]3(C)[C@H](CC[C@@H]4[C@@]5(C)CC=C(C6=CCC(CF)(C(=O)O)CC6)C(C)(C)[C@@H]5CC[C@]43C)[C@@H]12 (mixture of isomers) , state its measured AUC.
Ans. 7.93 µM·h

Qu. Provide measured AUC value, entry: C=C(C)[C@@H]1CC[C@]2(NCCN3CCS(=O)(=O)CC3)CC[C@]3(C)[C@H](CC[C@@H]4[C@@]5(C)CC=C(C6=CC[C@](CF)(C(=O)O)CC6)C(C)(C)[C@@H]5CC[C@]43C)[C@@H]12
Ans. 7.03 µM·h

* * *

Tested on: WT (wild-type HIV virus; recombinant NL4-3 virus)
experimentSummary: microbe, parasite or virus in culture
Format: cell-based, HIV-1
conditionInfo: Human immunodeficiency virus 1, NL43, MT2, read-out: WT (EC50, uM), Table 1 regular screen, MT-2 cells, luciferase readout
Would you mind telling me the reported EC50 of each entry?
# number only, unit µM dropped from output

Qu. Answer with reported EC50 of C=C(C)[C@@H]1CC[C@]2(NCCN3CCC(S(C)(=O)=O)CC3)CC[C@]3(C)[C@H](CC[C@@H]4[C@@]5(C)CC=C(C6=CCC(CF)(C(=O)O)CC6)C(C)(C)[C@@H]5CC[C@]43C)[C@@H]12 (mixture of isomers) [Example 1]
Ans. 0.00175

Qu. For the molecule C=C(C)[C@@H]1CC[C@]2(NCC[C@]3(O)CC[C@](C)(O)CC3)CC[C@]3(C)[C@H](CC[C@@H]4[C@@]5(C)CC=C(C6=CC[C@](CF)(C(=O)O)CC6)C(C)(C)[C@@H]5CC[C@]43C)[C@@H]12 [Example 2-16] , report EC50.
Ans. 0.0021

Qu. Consider the molecule C=C(C)[C@@H]1CC[C@]2(NCCC3(O)CCC(OS(C)(=O)=O)CC3)CC[C@]3(C)[C@H](CC[C@@H]4[C@@]5(C)CC=C(C6=CC[C@](CF)(C(=O)O)CC6)C(C)(C)[C@@H]5CC[C@]43C)[C@@H]12 (some centres unmarked) [Example 2-22] . State its measured EC50.
Ans. 0.00315

Qu. Report EC50 for C=C(C)[C@@H]1CC[C@]2(NCCN3CCC(S(C)(=O)=O)CC3)CC[C@]3(C)[C@H](CC[C@@H]4[C@@]5(C)CC=C(C6=CC[C@](CF)(C(=O)O)CC6)C(C)(C)[C@@H]5CC[C@]43C)[C@@H]12 [Example 1a]
Ans. 0.00225

Qu. Report EC50, nothing else, for this molecule: C=C(C)[C@@H]1CC[C@]2(NCC(=O)N3CCC(C)(O)CC3)CC[C@]3(C)[C@H](CC[C@@H]4[C@@]5(C)CC=C(C6=CC[C@](CF)(C(=O)O)CC6)C(C)(C)[C@@H]5CC[C@]43C)[C@@H]12 [Example 30]
Ans. 0.00298

Qu. Give EC50 for the following molecule: C=C(C)[C@@H]1CC[C@]2(NCCC3(O)CCN(S(C)(=O)=O)CC3)CC[C@]3(C)[C@H](CC[C@@H]4[C@@]5(C)CC=C(C6=CC[C@](CF)(C(=O)O)CC6)C(C)(C)[C@@H]5CC[C@]43C)[C@@H]12 [Example 2-14]
Ans. 0.00256

Qu. Quickly give me recorded EC50 for C=C(C)[C@@H]1CC[C@]2(NCC(=O)N3CCS(=O)(=O)C3)CC[C@]3(C)[C@H](CC[C@@H]4[C@@]5(C)CC=C(C6=CC[C@](CF)(C(=O)O)CC6)C(C)(C)[C@@H]5CC[C@]43C)[C@@H]12 [Example 35]
Ans. 0.00157

Qu. Determine its reported EC50: C=C(C)[C@@H]1CC[C@]2(NCCN3CCCC3=O)CC[C@]3(C)[C@H](CC[C@@H]4[C@@]5(C)CC=C(C6=CC[C@](CF)(C(=O)O)CC6)C(C)(C)[C@@H]5CC[C@]43C)[C@@H]12 [Example 20]
Ans. 0.00253

* * *

Test system: WT (wild-type HIV virus; recombinant NL4-3 virus)
experimentSummary: microbe, parasite or virus in culture
Assay type: cell-based, HIV-1
conditionInfo: Human immunodeficiency virus 1, NL43, MT2, read-out: WT (EC50, uM), Table 1 regular screen, MT-2 cells, luciferase readout
attributeMeasured: EC50 (µM)
Reply numerically in µM, unit not repeated.

Qu. Supply reported EC50 belonging to this compound: C=C(C)[C@@H]1CC[C@]2(NCCN3C[C@@H]4CC3CS4(=O)=O)CC[C@]3(C)[C@H](CC[C@@H]4[C@@]5(C)CC=C(C6=CC[C@](CF)(C(=O)O)CC6)C(C)(C)[C@@H]5CC[C@]43C)[C@@H]12 (stereo in doubt)
Ans. 0.00141

Qu. Please supply the value of reported EC50 for the item C=C(C)[C@@H]1CC[C@]2(NCCN3CCS(=O)(=O)CC3)CC[C@]3(C)[C@H](CC[C@@H]4[C@@]5(C)CC=C(C6=CC[C@](CF)(C(=O)O)CC6)C(C)(C)[C@@H]5CC[C@]43C)[C@@H]12
Ans. 0.00198

* * *

System: HIV-1 NL4-3 gag A364V virus
experimentSummary: microbe, parasite or virus in culture
Format: cell-based
conditionInfo: Human immunodeficiency virus 1, NL43, MT2, read-out: EC50 A364V (μM), Table 2, 3× higher viral input
attributeMeasured: EC50 (µM)
Numeric only. Scale: µM

Qu. Give reported EC50 value for C=C(C)[C@@H]1CC[C@]2(NCCN3CCC(S(C)(=O)=O)CC3)CC[C@]3(C)[C@H](CC[C@@H]4[C@@]5(C)CC=C(C6=CCC(F)(C(=O)O)CC6)C(C)(C)[C@@H]5CC[C@]43C)[C@@H]12 (some centres unmarked) [Compound A, reference compound]
Ans. 1.5

Qu. Provide only the value of recorded EC50 for C=C(C)[C@@H]1CC[C@]2(NCCN3CCS(=O)(=O)CC3)CC[C@]3(C)[C@H](CC[C@@H]4[C@@]5(C)CC=C(C6=CC[C@@](CF)(C(=O)O)CC6)C(C)(C)[C@@H]5CC[C@]43C)[C@@H]12
Ans. 0.17

* * *

Provide the recorded EC50 for the entries that follow.
Tested on: WT (wild-type HIV virus; recombinant NL4-3 virus)
experimentSummary: microbe, parasite or virus in culture
Assay type: cell-based, HIV-1
conditionInfo: Human immunodeficiency virus 1, NL43, MT2, read-out: WT (EC50, uM), Table 1 regular screen, MT-2 cells, luciferase readout
Kindly provide the numeric value in µM only, without the unit symbol.

Qu. Item C=C(C)[C@@H]1CC[C@]2(NCCN3CCN(C(C)=O)C(C)(C)C3=O)CC[C@]3(C)[C@H](CC[C@@H]4[C@@]5(C)CC=C(C6=CC[C@](CF)(C(=O)O)CC6)C(C)(C)[C@@H]5CC[C@]43C)[C@@H]12 : provide EC50
Ans. 0.00577

Qu. Return EC50 for the following compound: C=C(C)[C@@H]1CC[C@]2(NCC(O)CN3CCS(=O)(=O)CC3)CC[C@]3(C)[C@H](CC[C@@H]4[C@@]5(C)CC=C(C6=CC[C@](CF)(C(=O)O)CC6)C(C)(C)[C@@H]5CC[C@]43C)[C@@H]12 (some centres unmarked)
Ans. 0.00233

* * *

Answer each item with its documented EC50.
System: WT (wild-type HIV virus; recombinant NL4-3 virus)
experimentSummary: microbe, parasite or virus in culture
Assay type: cell-based, HIV-1
conditionInfo: Human immunodeficiency virus 1, NL43, MT2, read-out: WT (EC50, uM), Table 1 regular screen, MT-2 cells, luciferase readout
Dear colleague, please return just the value in µM, with no unit written.

Qu. Retrieve EC50 measured for C=C(C)[C@@H]1CC[C@]2(NCCN3CCC(C(=O)OCC)(C(=O)OCC)CC3)CC[C@]3(C)[C@H](CC[C@@H]4[C@@]5(C)CC=C(C6=CC[C@@](CF)(C(=O)O)CC6)C(C)(C)[C@@H]5CC[C@]43C)[C@@H]12 and print it.
Ans. 0.0188

Qu. Note EC50 for the compound shown: C=C(C)[C@@H]1CC[C@]2(NCCN3CCC(S(C)(=O)=O)CC3)CC[C@]3(C)[C@H](CC[C@@H]4[C@@]5(C)CC=C(C6=CC[C@@](CF)(C(=O)O)CC6)C(C)(C)[C@@H]5CC[C@]43C)[C@@H]12
Ans. 0.00193

Qu. Supply EC50 value. Item: C=C(C)[C@@H]1CC[C@]2(NCC[C@]3(O)CC[C@@](C)(O)CC3)CC[C@]3(C)[C@H](CC[C@@H]4[C@@]5(C)CC=C(C6=CC[C@](CF)(C(=O)O)CC6)C(C)(C)[C@@H]5CC[C@]43C)[C@@H]12
Ans. 0.00165

Qu. Return the recorded EC50 value; entry: C=C(C)[C@@H]1CC[C@]2(NCCN3CCC(C)(O)CC3)CC[C@]3(C)[C@H](CC[C@@H]4[C@@]5(C)CC=C(C6=CC[C@](CF)(C(=O)O)CC6)C(C)(C)[C@@H]5CC[C@]43C)[C@@H]12
Ans. 0.00121

Qu. Quickly give me recorded EC50 for C=C(C)[C@@H]1CC[C@]2(NCCC3(O)CCOCC3)CC[C@]3(C)[C@H](CC[C@@H]4[C@@]5(C)CC=C(C6=CC[C@](CF)(C(=O)O)CC6)C(C)(C)[C@@H]5CC[C@]43C)[C@@H]12
Ans. 0.00201
